Recorded Bound 3H Dexamethasone, one value per entry.
Target: glucocorticoid receptor (Homo sapiens, UniProt P04150)
Construct: The monocytes have been isolated from human blood by a method based on a density gradient; endogenous in cells; host or cells: primary human blood monocytes (Ficoll-Hypaque isolated), intact cells
Sequence (P04150 1-777): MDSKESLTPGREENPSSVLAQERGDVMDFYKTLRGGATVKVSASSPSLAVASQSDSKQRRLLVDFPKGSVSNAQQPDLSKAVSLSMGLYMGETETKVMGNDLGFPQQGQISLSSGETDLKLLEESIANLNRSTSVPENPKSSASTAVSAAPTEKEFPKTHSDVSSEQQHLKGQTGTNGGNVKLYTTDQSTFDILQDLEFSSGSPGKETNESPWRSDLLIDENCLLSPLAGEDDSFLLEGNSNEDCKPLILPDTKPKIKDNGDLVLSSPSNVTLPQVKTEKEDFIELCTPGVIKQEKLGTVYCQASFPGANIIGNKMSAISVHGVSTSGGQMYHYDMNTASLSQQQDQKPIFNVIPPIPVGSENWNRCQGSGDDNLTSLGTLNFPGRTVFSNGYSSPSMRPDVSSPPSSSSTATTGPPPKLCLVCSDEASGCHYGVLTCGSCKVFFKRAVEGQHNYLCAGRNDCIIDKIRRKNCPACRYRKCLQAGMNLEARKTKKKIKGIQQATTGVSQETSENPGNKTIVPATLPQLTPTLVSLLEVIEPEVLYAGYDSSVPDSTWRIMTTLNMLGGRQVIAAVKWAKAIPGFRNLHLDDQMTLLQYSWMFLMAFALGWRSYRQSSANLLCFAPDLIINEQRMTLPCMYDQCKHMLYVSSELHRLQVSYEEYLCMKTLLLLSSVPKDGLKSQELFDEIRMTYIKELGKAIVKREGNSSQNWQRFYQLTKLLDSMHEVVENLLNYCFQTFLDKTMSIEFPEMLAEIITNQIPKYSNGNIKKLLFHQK
Assay: GR binding assay: displacement of 3H-dexamethasone from glucocorticoid binding sites in human monocytes
Settings: tested compound 1 μM, 3H-dexamethasone 50 nM, 37° C., 1 hour

MOLECULE	UNIT SPEC	Bound 3H Dexamethasone
C[C@]12C=CC(=O)C=C1CC[C@@H]1[C@@H]2[C@@H](O)C[C@@]2(C)[C@H]1CC[C@]2(O)C(=O)COC(=O)CN1CCN(CCCO[N+](=O)[O-])CC1.Cl.Cl	fmol/mL	5.5
C[C@]12C=CC(=O)C=C1CCC1C2[C@@H](O)C[C@@]2(C)C1CC[C@]2(O)C(=O)COC(=O)c1ccc(CO[N+](=O)[O-])cc1 (stereo partly shown)	fmol/mL	0
C[C@]12C=CC(=O)C=C1CC[C@@H]1[C@@H]2[C@@H](O)C[C@@]2(C)[C@H]1CC[C@]2(O)C(=O)COC(=O)CN1CCN(CCCO[N+](=O)[O-])CC1.O=C(O)C(F)(F)F.O=C(O)C(F)(F)F	fmol/mL	2.4
C[C@]12C=CC(=O)C=C1CC[C@@H]1[C@@H]2[C@@H](O)C[C@@]2(C)[C@H]1CC[C@]2(O)C(=O)COC(=O)CCCO[N+](=O)[O-] [Predn-C4—ONO2, Prednisolone 21-(4-nitrooxy)butyrate, reference compound]	fmol/mL	9.9
